All figures here come from ChEMBL document CHEMBL1123784.

# Test system: Bifunctional dihydrofolate reductase-thymidylate synthase (Leishmania major, UniProt P07382)
# Sequence (P07382 whole entry): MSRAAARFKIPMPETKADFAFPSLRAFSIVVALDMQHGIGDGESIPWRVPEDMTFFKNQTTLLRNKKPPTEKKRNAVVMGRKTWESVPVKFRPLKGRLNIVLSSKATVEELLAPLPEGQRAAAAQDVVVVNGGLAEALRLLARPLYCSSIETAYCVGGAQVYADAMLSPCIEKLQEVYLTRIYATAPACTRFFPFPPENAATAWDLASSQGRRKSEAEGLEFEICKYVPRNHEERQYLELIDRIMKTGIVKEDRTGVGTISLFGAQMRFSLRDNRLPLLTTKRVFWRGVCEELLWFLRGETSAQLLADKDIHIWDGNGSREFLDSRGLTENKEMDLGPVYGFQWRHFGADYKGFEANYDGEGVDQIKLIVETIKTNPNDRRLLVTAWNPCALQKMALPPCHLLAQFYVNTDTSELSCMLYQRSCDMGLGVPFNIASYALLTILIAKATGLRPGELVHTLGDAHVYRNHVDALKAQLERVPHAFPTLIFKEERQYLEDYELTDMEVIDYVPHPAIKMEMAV
# Method notes: Inhibition of dihydrofolate reductase (DHFR) from Leishmania major
# Condition label: read-out: Log 1/Ki (converted)
# strict inequality: Ki < 200 nM yields Criterion met, everything else yields Criterion not met

Here's what some known entries look like.
Given smiles	Label
CCCCCCCCCCCCc1cccc(N2C(N)=NC(N)=NC2(C)C)c1	Criterion met
CC1(C)N=C(N)N=C(N)N1c1cccc(COc2cccc3ccccc23)c1	Criterion met
CC(=O)c1cccc(N2C(N)=NC(N)=NC2(C)C)c1	Criterion not met
CC1(C)N=C(N)N=C(N)N1c1cccc(SCc2ccccc2)c1	Criterion not met
CCc1cccc(N2C(N)=NC(N)=NC2(C)C)c1	Criterion not met

Q. Bench note: check whether CC1(C)N=C(N)N=C(N)N1c1cccc(Cl)c1 shows Ki below 200 nM
A. Criterion not met

Q. One more molecule: CCCCCCCCCCCCCCOc1cccc(N2C(N)=NC(N)=NC2(C)C)c1
A. Criterion not met

Q. One more molecule: CC1(C)N=C(N)N=C(N)N1c1ccccc1
A. Criterion not met

Q. One more molecule: CC1(C)N=C(N)N=C(N)N1c1cccc(COc2cccc(C#N)c2)c1
A. Criterion met

Q. One more molecule: COc1cccc(N2C(N)=NC(N)=NC2(C)C)c1
A. Criterion not met

Q. One more molecule: CC1(C)N=C(N)N=C(N)N1c1cccc(CNc2ccc(S(N)(=O)=O)cc2)c1
A. Criterion not met

====

# Test system: Bifunctional dihydrofolate reductase-thymidylate synthase (Leishmania major)
# Method notes: Inhibition of dihydrofolate reductase (DHFR) from Leishmania major
# Condition label: read-out: Log 1/Ki (converted)
This section presents compounds with their documented Ki values.
Hi! Could you send only the number? It should be in nM, unit omitted.

Below are worked cases with known answers.
Given smiles	Ki (nM)
CC1(C)N=C(N)N=C(N)N1c1cccc(OCCCCOc2cccc(C(F)(F)F)c2)c1	75.9
CC1(C)N=C(N)N=C(N)N1c1cccc(C(N)=O)c1	117000
CC1(C)N=C(N)N=C(N)N1c1cccc(O)c1	53700

Q. Which measured Ki value corresponds to CCCCCCCCCOc1cccc(N2C(N)=NC(N)=NC2(C)C)c1 ?
A. 302

Q. One more compound: CC(=O)Nc1cccc(OCc2cccc(N3C(N)=NC(N)=NC3(C)C)c2)c1
A. 75.9

====

# Test system: Bifunctional dihydrofolate reductase-thymidylate synthase (Leishmania major)
# Method notes: Inhibition of dihydrofolate reductase (DHFR) from Leishmania major
# Condition label: read-out: Log 1/Ki (converted)
# strict inequality: Ki < 400 nM yields t, everything else yields f

Here's what some known entries look like.
Given smiles	Label
CC1(C)N=C(N)N=C(N)N1c1cccc(OCC23CC4CC(CC(C4)C2)C3)c1	f
CCCCCc1ccc(OCc2cccc(N3C(N)=NC(N)=NC3(C)C)c2)cc1	t
CC1(C)N=C(N)N=C(N)N1c1cccc([N+](=O)[O-])c1	f
CC1(C)N=C(N)N=C(N)N1c1cccc(OCc2ccccc2)c1	f

Continue with the next molecule.
Q. Bench note: check whether CC1(C)N=C(N)N=C(N)N1c1cccc(OCCOc2cccc(C(F)(F)F)c2)c1 shows Ki below 400 nM
A. t

====

This section presents molecules with their documented Ki values.
# Test system: Bifunctional dihydrofolate reductase-thymidylate synthase (Leishmania major, UniProt P07382)
# Method notes: Inhibition of dihydrofolate reductase (DHFR) from Leishmania major
# Condition label: read-out: Log 1/Ki (converted)
Hi! Could you send only the number? It should be in nM, unit omitted.

Below are worked cases with known answers.
Molecule	Ki / nM
CC1(C)N=C(N)N=C(N)N1c1cccc(CNc2ccc(Cl)cc2)c1	661
CC1(C)N=C(N)N=C(N)N1c1cccc(COc2cccc(Cl)c2)c1	224
CC1(C)N=C(N)N=C(N)N1c1cccc(COc2cccc(NC(N)=O)c2)c1	91.2
CC1(C)N=C(N)N=C(N)N1c1cccc(COc2cc(Cl)c(Cl)cc2Cl)c1	69.2
CC1(C)N=C(N)N=C(N)N1c1cccc(CNc2cc(C(N)=O)cc(C(N)=O)c2)c1	513
CC1(C)N=C(N)N=C(N)N1c1cccc(C[Se]c2ccccc2)c1	275
CC1(C)N=C(N)N=C(N)N1c1cccc(C(F)(F)F)c1	2190
CC1(C)N=C(N)N=C(N)N1c1cccc(C(O)c2ccccc2)c1 (stereo not drawn)	42700

Q. Which measured Ki value corresponds to CC1(C)N=C(N)N=C(N)N1c1cccc(SCc2ccc(Cl)cc2)c1 ?
A. 110

Q. One more molecule: CCOC(=O)c1cccc(N2C(N)=NC(N)=NC2(C)C)c1
A. 112000

Q. One more molecule: CC(C)(C)c1cccc(N2C(N)=NC(N)=NC2(C)C)c1
A. 5750

Q. One more molecule: CC1(C)N=C(N)N=C(N)N1c1cccc(COc2cccc(-c3ccccc3)c2)c1
A. 17

Q. One more molecule: CC(C)c1cccc(OCc2cccc(N3C(N)=NC(N)=NC3(C)C)c2)c1
A. 174

====

# Test system: Bifunctional dihydrofolate reductase-thymidylate synthase (Leishmania major)
# Method notes: Inhibition of dihydrofolate reductase (DHFR) from Leishmania major
# Condition label: read-out: Log 1/Ki (converted)
Measurement name: Ki (nM)
Hi! Could you send only the number? It should be in nM, unit omitted.

Given smiles	Ki / nM
CCCCCCCCCc1cccc(N2C(N)=NC(N)=NC2(C)C)c1	20.9
COc1cccc(OCc2cccc(N3C(N)=NC(N)=NC3(C)C)c2)c1	151
CC1(C)N=C(N)N=C(N)N1c1cccc(COc2cccc(CO)c2)c1	646

Q. Which measured Ki value corresponds to Cc1cccc(OCc2cccc(N3C(N)=NC(N)=NC3(C)C)c2)c1 ?
A. 427

Q. One more compound: CCOc1cccc(N2C(N)=NC(N)=NC2(C)C)c1
A. 38000

Q. One more compound: CC1(C)N=C(N)N=C(N)N1c1cccc(S(N)(=O)=O)c1
A. 363000

Q. One more compound: CCc1cccc(OCc2cccc(N3C(N)=NC(N)=NC3(C)C)c2)c1
A. 126

Q. One more compound: CCCCCCOc1cccc(N2C(N)=NC(N)=NC2(C)C)c1
A. 3980

Q. One more compound: CCCCCCCCCCCOc1cccc(N2C(N)=NC(N)=NC2(C)C)c1
A. 977

Q. One more compound: CC1(C)N=C(N)N=C(N)N1c1cccc(C#N)c1
A. 6030
